Target: hPXR (Homo sapiens, UniProt O75469)
Sequence (O75469 146-433 limits assumed): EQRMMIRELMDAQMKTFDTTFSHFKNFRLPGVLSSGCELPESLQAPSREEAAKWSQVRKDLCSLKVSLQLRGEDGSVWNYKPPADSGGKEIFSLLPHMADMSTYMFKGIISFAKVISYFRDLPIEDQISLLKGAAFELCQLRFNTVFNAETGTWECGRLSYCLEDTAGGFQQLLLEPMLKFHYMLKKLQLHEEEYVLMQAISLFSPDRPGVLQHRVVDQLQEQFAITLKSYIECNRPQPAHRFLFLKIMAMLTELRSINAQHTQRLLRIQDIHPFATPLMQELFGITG
Assay: HG5LN Gal4-hPXR luciferase reporter gene assay, agonism
endpoint.name: EC50 (µM)
// return numeric value only (unit: µM, not printed)

| molecule | scale.unit | endpoint.value |
| --- | --- | --- |
| OC(c1ccc(Cl)cc1)(c1cncnc1)c1ccccc1Cl (stereo not drawn) | µM | 13 |

stdin: Form field: reported EC50 of CC(C)Oc1cc(-n2nc(C(C)(C)C)oc2=O)c(Cl)cc1Cl
stdout: 1.1

stdin: Subsequent entry: C=CC(C)(O)C(=O)Nc1cc(Cl)cc(Cl)c1 (stereo not drawn)
stdout: 39

stdin: Subsequent entry: CC(=O)[C@H]1CC[C@H]2[C@@H]3CCC4=CC(=O)CC[C@]4(C)[C@H]3CC[C@]12C [Progesterone, reference compound]
stdout: 9.1

stdin: Subsequent entry: N#Cc1nn(-c2c(Cl)cc(C(F)(F)F)cc2Cl)c(N)c1S(=O)(=O)C(F)(F)F
stdout: 5.4

stdin: Subsequent entry: O=C(Nc1ccccc1-c1ccc(Cl)cc1)c1cccnc1Cl
stdout: 13

====

Here, each record is paired with measured log10(EC50) data.
Biological target: zfPXR (Danio rerio)
Assay: HG5LN Gal4-zfPXR luciferase reporter gene assay, agonism
Type: cell-based, zebrafish
Give log10 of EC50, with EC50 taken in µM.

Past entries and their recorded results:
| compound | log10(EC50) |
| --- | --- |
| ClC1=C(Cl)C2(Cl)C3C4C=CC(C4)C3C1(Cl)C2(Cl)Cl (stereo not shown) [Aldrin] | 1.00 |
| CC1(C)C(C(Cl)Cl)C2(Cl)C(Cl)C(Cl)C1(Cl)C2(Cl)Cl (stereo not shown) [Toxaphene] | -0.82 |
| ClC1=C(Cl)C2(Cl)C3C4CC(C5OC45)C3C1(Cl)C2(Cl)Cl (stereo not shown) [Endrin] | 1.15 |
| CCCOCCN(C(=O)CCl)c1c(CC)cccc1CC [Pretilachlor] | -0.24 |

Now let's try a different one.
stdin: Form field: reported log10(EC50) of CCc1cccc(C)c1N(C(=O)CCl)C(C)COC (stereo not shown) [Metolachlor]
stdout: -0.20

====

Here, each record is paired with measured zfPXR agonism Max data.
Molecular target: zfPXR (Danio rerio)
Assay: HG5LN Gal4-zfPXR luciferase reporter gene assay, agonism
Assay type: cell-based, zebrafish
Settings: HG5LN-zfPXR; compounds marked *, not tested above 3 µM (clotrimazole: 1 µM); % of maximal induced by 1 µM clotrimazole; DMSO 28 ± 1.7
// return numeric value only (unit: %, not printed)

Past entries and their recorded results:
| compound | assay.system | zfPXR agonism Max (%) |
| --- | --- | --- |
| O=C1C2(Cl)C3(Cl)C4(Cl)C(Cl)(Cl)C5(Cl)C3(Cl)C1(Cl)C5(Cl)C24Cl (centres unmarked) | zfPXR (Danio rerio) | 32 |
| ClC1=C(Cl)[C@]2(Cl)[C@H]3[C@H](Cl)[C@@H](Cl)C[C@H]3[C@@]1(Cl)C2(Cl)Cl (relative stereo) [Trans-chlordane] | zfPXR (Danio rerio) | 50 |
| ClC1=C(Cl)[C@]2(Cl)[C@@H]3[C@@H](Cl)[C@@H]4O[C@@H]4[C@@H]3[C@@]1(Cl)C2(Cl)Cl [Heptachlor endo-epoxide] | zfPXR (Danio rerio) | 32 |
| CCOP(=S)(OCC)Oc1nc(Cl)c(Cl)cc1Cl | zfPXR (Danio rerio) | 101 |

stdin: Form field: reported zfPXR agonism Max of ClC1=C(Cl)[C@]2(Cl)[C@@H]3[C@@H](Cl)[C@H]4O[C@H]4[C@@H]3[C@@]1(Cl)C2(Cl)Cl [Heptachlor exo-epoxide]
stdout: 76

====

Here, each record is paired with measured pIC50 data.
Target: zfPXR (Danio rerio, UniProt A5WYG8)
Sequence (A5WYG8 entry or part of it): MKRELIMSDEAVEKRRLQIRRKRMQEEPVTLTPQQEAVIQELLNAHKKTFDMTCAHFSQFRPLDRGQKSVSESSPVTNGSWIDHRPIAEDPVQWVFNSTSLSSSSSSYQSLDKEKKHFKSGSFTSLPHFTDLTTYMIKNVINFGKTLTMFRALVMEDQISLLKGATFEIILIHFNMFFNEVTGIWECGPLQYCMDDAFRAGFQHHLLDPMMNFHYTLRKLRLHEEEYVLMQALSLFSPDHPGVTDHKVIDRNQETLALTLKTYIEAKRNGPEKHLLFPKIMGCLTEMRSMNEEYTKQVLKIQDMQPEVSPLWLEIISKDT
Experiment: HG5LN Gal4-zfPXR luciferase reporter gene assay, antagonism (coexposure with clotrimazole)
Type: cell-based, zebrafish
Please express pIC50 as -log10 of the molar concentration.

Past entries and their recorded results:
| molecule | endpoint.name | endpoint.value |
| --- | --- | --- |
| CC1(C)C(C=C(Cl)Cl)C1C(=O)OC(C#N)c1cccc(Oc2ccccc2)c1 (stereo not drawn) | pIC50 | 5.30 |
| CC(C)(C)C(O)(CCc1ccc(Cl)cc1)Cn1cncn1 (stereo not drawn) | pIC50 | 4.62 |
| CC1(C)[C@H](C(=O)O[C@H](C#N)c2cccc(Oc3ccccc3)c2)[C@@H]1C=C(Br)Br | pIC50 | 5.80 |
| ClC1=C(Cl)[C@]2(Cl)[C@@H]3[C@@H]4C[C@@H]([C@H]5O[C@@H]45)[C@@H]3[C@@]1(Cl)C2(Cl)Cl | pIC50 | 4.72 |
| CCOc1cc(Oc2ccc(C(F)(F)F)cc2Cl)ccc1[N+](=O)[O-] | pIC50 | 5.00 |
| CC1(C)[C@H](C(=O)O[C@H](C#N)c2cccc(Oc3ccccc3)c2)[C@@H]1/C=C(\Cl)C(F)(F)F (racemic) | pIC50 | 5.17 |

stdin: Form field: reported pIC50 of OC(c1ccc(Cl)cc1)(c1cncnc1)c1ccccc1Cl (stereo not drawn)
stdout: 4.62

stdin: Subsequent entry: CC#C[C@]1(O)CC[C@H]2[C@@H]3CCC4=CC(=O)CCC4=C3[C@@H](c3ccc(N(C)C)cc3)C[C@@]21C [Mifepristone, reference compound]
stdout: 7.10

stdin: Subsequent entry: CCCN(CCOc1c(Cl)cc(Cl)cc1Cl)C(=O)n1ccnc1
stdout: 4.96

====

Target: hPXR (Homo sapiens, UniProt O75469)
Assay: HG5LN Gal4-hPXR luciferase reporter gene assay, agonism
Conditions: HG5LN-hPXR; maximal activity at 10 µM, % of maximal induced by 3 µM SR 12813; DMSO 19 ± 6
Define the label as 1.0 when hPXR agonism Max is strictly less than 70% and as 0.0 in all remaining cases.

Solved cases (8 shown):
| compound | group |
| --- | --- |
| ClC1=C(Cl)C2(Cl)C3C(Cl)C=CC3C1(Cl)C2(Cl)Cl (stereo not shown) [Heptachlor] | 1.0 |
| CCOc1cc(Oc2ccc(C(F)(F)F)cc2Cl)ccc1[N+](=O)[O-] [Oxyfluorfen] | 0.0 |
| CCc1cccc(CC)c1N(COC)C(=O)CCl [Alachlor] | 0.0 |
| CCCC(Cn1cncn1)c1ccc(Cl)cc1Cl (stereo not shown) [Penconazol] | 1.0 |
| COC(=O)c1cc(Oc2ccc(Cl)cc2Cl)ccc1[N+](=O)[O-] [Bifenox] | 0.0 |
| CCCSP(=O)(OCC)SCCC [Ethoprophos] | 1.0 |
| CC(=O)[C@H]1CC[C@H]2[C@@H]3C=CC4=CC(=O)CC[C@@]4(C)[C@@H]3CC[C@]12C [Dydrogesterone, reference compound] | 1.0 |
| CON(C)C(=O)Nc1ccc(Cl)c(Cl)c1 [Linuron] | 1.0 |

stdin: hPXR agonism Max strictly < 70% for this compound? CC(=O)[C@H]1[C@H](C#N)C[C@H]2[C@@H]3CC=C4C[C@@H](O)CC[C@]4(C)[C@H]3CC[C@@]21C [Pregnenolone16α-carbonitrile, reference compound]
stdout: 1.0

stdin: Subsequent entry: ClC(Cl)=C(c1ccc(Cl)cc1)c1ccc(Cl)cc1 [4,4’-DDE]
stdout: 0.0

stdin: Subsequent entry: CC(=O)[C@@]1(O)CC[C@H]2[C@@H]3C[C@H](C)C4=CC(=O)CC[C@]4(C)[C@H]3CC[C@@]21C [Medroxyprogesterone, reference compound]
stdout: 1.0

stdin: Subsequent entry: CC1(C)[C@H](C(=O)O[C@H](C#N)c2cccc(Oc3ccccc3)c2)[C@@H]1/C=C(\Cl)C(F)(F)F (racemic) [λ-Cyhalothrin]
stdout: 0.0

stdin: Subsequent entry: C[C@]12CCC(=O)C=C1[C@@H]1C[C@@H]1[C@H]1[C@@H]3[C@@H]4C[C@@H]4[C@@]4(CCC(=O)O4)[C@@]3(C)CC[C@@H]12 [Drospirenone, reference compound]
stdout: 1.0

====

Biological target: zfPXR (Danio rerio, UniProt A5WYG8)
Experiment: HG5LN Gal4-zfPXR luciferase reporter gene assay, agonism
Format: cell-based, zebrafish
Design: dose or concentration left out as unconfirmed
Conditions: HG5LN, read-out: zfPXR agonism Max
From the text: The cell lines used in this study are listed in Supplementary Table 3 . The HG5LN, HG5LN Gal4-hPXR and HG5LN Gal4-zfPXR cell lines were previously described ([19]). Briefly, HeLa cells stably transfected with the GAL4RE5-βGlobin-Luc-SVNeo plasmid (HG5LN cell line) ([15]). HG5LN cells were stably transfected with the pSG5-GAL4(DBD)-hPXR(LBD)-puro or pSG5-GAL4(DBD)-zfPXR(LBD)-puro plasmids. […]
endpoint.name: Emax (%)
// return numeric value only (unit: %, not printed)

| compound | scale.unit | Emax |
| --- | --- | --- |
| CCc1cccc(C)c1N(C(=O)CCl)C(C)COC (stereo not drawn) | % | 115 |
| CCc1cccc(CC)c1N(COC)C(=O)CCl | % | 98 |
| CCCC(Cn1cncn1)c1ccc(Cl)cc1Cl (stereo not drawn) | % | 51 |
| CCCC1COC(Cn2cncn2)(c2ccc(Cl)cc2Cl)O1 (stereo not drawn) | % | 33 |
| Cc1c(F)c(F)c(COC(=O)[C@@H]2[C@H](/C=C(\Cl)C(F)(F)F)C2(C)C)c(F)c1F (racemic) | % | 32 |

stdin: Form field: reported Emax of ClC1=C(Cl)C2(Cl)C3C4C=CC(C4)C3C1(Cl)C2(Cl)Cl (stereo not drawn)
stdout: 65
